Readings of interaction score for the listed binders
Target: T1, P6-AA-12HGe-D
T1 chain: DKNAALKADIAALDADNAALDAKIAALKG
Assay: two-hybrid library CCmax;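 also: natural log of median RNA to DNA barcode read ratio; higher means stronger binding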
Conditions: mean of both orientations
# answer = number (no unit)

Here are 6 binders together with their reported answers.
1. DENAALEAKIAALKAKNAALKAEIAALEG [4H1401-AA] | -0.647
2. DENAALEAAIAALAAANAALAAEIAALEG [P5-AA-12HGe-A] | -1.87
3. DENAALEAYIAALYAYNAALYAEIAALEG [P5-AA-12HGe-Y] | -1.93
4. DENAALEAWIAALWAWNAALWAEIAALEG [P5-AA-12HGe-W] | -1.67
5. DENAALEAEIAALEAENAALEAEIAALEG [P5-AA-12HGe-E] | -1.51
6. DENAALEADIAALDADNAALDAEIAALEG [P5-AA-12HGe-D] | -1.85

Next binder, interaction score to be filled in.
IN: Entry under review: DENAALEARIAALRARNAALRAEIAALEG [P5-AA-12HGe-R] . Reported interaction score?
OUT: -0.685
